- Assay Method Text: Plasma pharmacokinetics of CR665 after single IV infusion in human subjects
- Settings: male, human, plasma, intravenous, Vz, geometric least squares mean, males, 5-minute infusion, Parts A & B
Counter-ions that a name gives are not always drawn. Non-standard residues stand in square brackets, D forms with d. Residues, ends and D or L forms follow the SMILES beside them. *: point of attachment. NH(4-picolyl) = c1cc(CN*)ccn1; dNle = CCCC[C@@H](N)C(=O)O

Compound	Vd
CCCC[C@@H](NC(=O)[C@@H](Cc1ccccc1)NC(=O)[C@H](N)Cc1ccccc1)C(=O)N[C@H](CCCNC(=N)N)C(=O)NCc1ccncc1 [CR665, acetate salt] (H-[dF][dF][dNle][dR]-{NH(4-picolyl)})	61 L
